The measured values listed here are drawn from ChEMBL document CHEMBL2163201.

# test: Apparent permeability across apical to basolateral side of human Caco2 cells
# Format: ADME, cell-based
# assayConditions: Caco-2
# binarize Papp A→B: threshold 50 ×10⁻⁶ cm/s inclusive, high side class 1, low side class 0

Study these solved cases before continuing.
# molecule, labelValue
records = [
    ("CCN(CCO)C(=O)c1cc2ccccn2c1-c1cccc(OC)c1", "class 1"),
    ("COc1cccc(-c2c(C(=O)N3CCCCC3CO)cc3ccccn23)c1 (stereo not given)", "class 1"),
    ("CCN(CCO)C(=O)c1cc2ccccn2c1-c1cccc(OC)n1", "class 1"),
    ("CCCN(CCO)C(=O)c1cc2ccccn2c1-c1ccccc1", "class 1"),
]

Now for a further molecule.
Is the recorded value of Papp A→B equal to or greater than 50 ×10⁻⁶ cm/s for this molecule? CCN(CCO)C(=O)c1cc2cccnn2c1-c1cccc(C(F)(F)F)c1
class 0

====

# test: Equilibrium solubility of the compound in DMSO preincubated for 4 hrs
# Type: physicochemical
endpoint: solubility at 4 h

Field: example entries. Status: answers known.
# entrySmiles, endpoint, result
data = [
    ("CCN(CCO)C(=O)c1oc2cccnc2c1-c1cccc(C(F)(F)F)c1", "solubility at 4 h", "> 400 µM"),
    ("COc1ccc(-c2c(C(=O)N3CCC[C@H]3CO)cc3cccnn23)cc1", "solubility at 4 h", "> 400 µM"),
]

--- query ---
Documented solubility at 4 h of CCN(CCO)C(=O)c1cc2cccnc2n1-c1cccc(C(F)(F)F)c1 : > 300 µM
